Test system: RXRa homodimer (NR concentration 180 nM)
ASSAY_OVERVIEW: PBM binding z-score (relative to random genomic background probes); higher = stronger binding; sequences stand for … in GC…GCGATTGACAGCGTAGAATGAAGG
// bucketize PBM binding z-score: low (below 3), mid (3 to below 5), high (5 or more)

INSERT INTO results (sequence_code, group) VALUES
  ('TCGAGTAAGTTACGGGGGCATTCAGGGATGAAGA', 'low'),
  ('CGAACTAGGTCACCAGGACAGTGACGAGGTTGGA', 'mid'),
  ('TAGCCTAGGTCATTGTGCCAGTATAGTACGCATC', 'low'),
  ('TCGAGTAGGTTACGGGTGCATTCAGGGATGAAGA', 'low'),
  ('TTAACAAGGTGAAAGGTCGTTGATGCACGCCTTG', 'high'),
  ('GATACAGGGTCAGCTAGAGGTCAGAGTATGGAAA', 'high'),
  ('ATATGTAGGTTAGTGTCATTCAGAAAGTAGGGAA', 'low'),
  ('CCAACTAGGTCATTGACAGGACAGTGAATAGTAA', 'low'),
  ('CCTACTGGGCCAAAGGTCATAGATTCCAATGCTC', 'high'),
  ('CTATGTAGGTTAAGGGGGTCAATCAGTTTGAAAG', 'high'),
  ('CGAACTAGGTCACCAGGACAGTGATGAGGTTGGA', 'mid'),
  ('ACCAGCAGGCCAAGGGTCACTCAAGATTAGTCCG', 'mid'),
  ('AGAATGAGGTTACACGTAGATCAGGGAAGAAAGT', 'low'),
  ('CGAACTAGGGCAAAGGACAGTGAAAGGCGACGTA', 'low'),
  ('TCTTATAGATCAATAGAGGTTAAGAAAGTGCGCT', 'low'),
  ('GCTGCTAGGTCAGGTTGGTCGGCTAACGGGTACG', 'low'),
  ('CGGACTGGGGCAAAGGTTACCATACTCAGTACGA', 'mid'),
  ('CGAACTAGGTCACCACGACAGTGAAGAGGTTGGA', 'mid'),
  ('TCGAGTAGGTTAAGGGGGCATTCAGGGATGAAGA', 'low'),
  ('CCGAGTAGGTTACGAGGGGCCATTCAGTGCGAAT', 'low'),
  ('AGAATGAGGTTAAGATTAGGGAAACAGAATACAT', 'low'),
  ('CGAACTAGGTCAAAGGCCAGTGAAAGGCGACGTA', 'mid'),
  ('ATCGAAGGGTCGAAGGTGAGTATACCCACCCGAA', 'mid'),
  ('CCTCCAAGGTCATAGGAGGTCAGTGAAGACAGAT', 'high'),
  ('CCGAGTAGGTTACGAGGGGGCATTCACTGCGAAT', 'low'),
  ('CCGAGTAGGTTACGAGGGGGCTTTCAGTGCGAAT', 'low'),
  ('AATACAGGGTCATTAGGCCAGAGTAGGTACGAAT', 'high'),
  ('CTATGTAGGTGAAGGGGGTCATTCAGTTTGAAAG', 'high'),
  ('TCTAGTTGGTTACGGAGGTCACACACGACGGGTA', 'mid'),
  ('CGAACTAGGTCAAAGGGCAGTGAAAGGCGACGTA', 'high'),
  ('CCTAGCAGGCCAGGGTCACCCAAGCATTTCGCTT', 'mid'),
  ('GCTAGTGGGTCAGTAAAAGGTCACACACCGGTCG', 'high'),
  ('TCGAGAAGGTTACGGGGGCATTCAGGGATGAAGA', 'mid'),
  ('CCGAGTAGGTTACGAAGGGGCATTCAGTGCGAAT', 'low'),
  ('CGTCCAAGGTCAATGCGAGGTCAGTGAAAGCATT', 'high'),
  ('ATCTCTAGGTCAAAGTTCAGTGAATCCCGAGGAT', 'high'),
  ('CTATGTAGGTTAAGTGGGTCATTCAGTTTGAAAG', 'low'),
  ('CTATGTAGGTTAAGGGGGTTATTCAGTTTGAAAG', 'low'),
  ('CGTCAAAGTTCAACTAAGGTAACTTAAAGCACGC', 'mid'),
  ('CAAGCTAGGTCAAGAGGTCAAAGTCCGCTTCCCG', 'high'),
  ('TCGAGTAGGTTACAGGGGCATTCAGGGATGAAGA', 'low'),
  ('CAAACTAGGTCACGAAAGGTCAACGTCGAATGAC', 'high'),
  ('ATATGAAGGTTATCGGGTCATTCAGTTTGCGCAT', 'mid'),
  ('CTAGGTAGGTTAAGGGGGTCATTCAGTTTGAAAG', 'high'),
  ('ATCTGTAGGTTAGGGTCATTCAGAAAGTAGGGAA', 'high'),
  ('AGTGAAAGTTCAGGACGAGGTAACGTAAAGCACG', 'low');

Hey, just so you know, these numbers are from the supplement of paper PMC6555819.
